Collected melting point values appear next to each entry.

Worked examples, 3 compounds total:
| compound | recorded_metric | result |
| --- | --- | --- |
| NC(=O)[C@H]1CCCN1C(c1ccccc1)(c1ccccc1)c1ccccc1 | melting point | 162 °C |
| O=C1CCC(CO)N1C(=O)Nc1ccccc1 (stereo unspecified) | melting point | 99 to 101 °C |
| NS(=O)(=O)c1cccc2ccccc12 | melting point | 152 to 153 °C |

input: // returns reported melting point for input NC(=O)N(O)CCNC(=O)Cc1ccccc1Nc1c(Cl)cccc1Cl
output: 187 to 189 °C

input: // returns reported melting point for input O=C(CCl)Nc1ccc2cn[nH]c2c1
output: 155 to 160 °C

input: // returns reported melting point for input OCC(O)CNC(c1ccccc1)C(O)c1ccccc1 (stereo unspecified)
output: 161 to 163 °C

These data points were gathered from a melting point compilation (Tetko et al.; mined from patent text by program, amines drawn as free bases though some values may be those of a salt).
